# TESTED TARGET: UniProtKB Q9UBN7
# Sequence (Q9UBN7 whole entry): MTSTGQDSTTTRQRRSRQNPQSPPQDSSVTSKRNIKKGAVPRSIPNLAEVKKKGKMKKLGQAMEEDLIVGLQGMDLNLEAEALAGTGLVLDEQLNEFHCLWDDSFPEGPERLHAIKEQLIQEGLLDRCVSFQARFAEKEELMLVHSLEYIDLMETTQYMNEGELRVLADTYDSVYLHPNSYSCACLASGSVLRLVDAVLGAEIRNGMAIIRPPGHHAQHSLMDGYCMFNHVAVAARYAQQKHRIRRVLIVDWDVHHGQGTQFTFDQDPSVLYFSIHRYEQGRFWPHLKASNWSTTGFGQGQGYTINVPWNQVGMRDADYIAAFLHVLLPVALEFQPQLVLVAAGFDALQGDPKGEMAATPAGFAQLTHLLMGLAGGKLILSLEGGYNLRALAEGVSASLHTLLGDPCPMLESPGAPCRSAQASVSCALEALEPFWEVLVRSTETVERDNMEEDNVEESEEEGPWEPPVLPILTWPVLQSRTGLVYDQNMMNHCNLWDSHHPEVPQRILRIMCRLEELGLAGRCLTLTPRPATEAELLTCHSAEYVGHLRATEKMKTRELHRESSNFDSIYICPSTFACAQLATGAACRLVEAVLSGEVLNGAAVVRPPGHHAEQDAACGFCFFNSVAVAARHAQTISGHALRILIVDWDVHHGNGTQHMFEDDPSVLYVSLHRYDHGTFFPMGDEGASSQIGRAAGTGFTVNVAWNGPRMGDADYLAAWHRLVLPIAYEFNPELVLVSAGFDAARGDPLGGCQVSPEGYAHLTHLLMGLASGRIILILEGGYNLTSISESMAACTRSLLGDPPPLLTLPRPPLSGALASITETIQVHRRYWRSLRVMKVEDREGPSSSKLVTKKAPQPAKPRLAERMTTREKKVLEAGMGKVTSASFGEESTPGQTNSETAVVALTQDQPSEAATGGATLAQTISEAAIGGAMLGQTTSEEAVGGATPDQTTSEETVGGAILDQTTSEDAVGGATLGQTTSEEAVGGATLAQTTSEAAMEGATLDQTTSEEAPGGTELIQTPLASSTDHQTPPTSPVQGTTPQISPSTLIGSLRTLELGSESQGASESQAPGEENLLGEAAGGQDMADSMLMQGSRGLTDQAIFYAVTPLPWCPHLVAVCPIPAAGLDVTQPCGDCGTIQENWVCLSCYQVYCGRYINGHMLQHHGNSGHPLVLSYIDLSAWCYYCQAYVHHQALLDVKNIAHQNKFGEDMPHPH
# PROTOCOL NOTES: Inhibition of HDAC6 in human HCT-116 cells assessed as upregulation of acetylated alpha-tubulin level at 1 uM incubated for 24 hrs by Western blotting analysis
# Format: cell-based
The source made the active and inactive calls. The rule behind the calls is not given here.
Outcome codes: active, inactive

{"SMILES STRUCTURE": "O=C(NCC[Se][Se]CCNC(=O)/C(Cc1ccsc1)=N/O)/C(Cc1ccsc1)=N/O", "ASSIGNED CATEGORY": "active"}
{"SMILES STRUCTURE": "O=C(NCC[Se][Se]CCNC(=O)/C(Cc1ccc(Br)s1)=N/O)/C(Cc1ccc(Br)s1)=N/O", "ASSIGNED CATEGORY": "active"}
{"SMILES STRUCTURE": "O=C(NCC[Se][Se]CCNC(=O)/C(Cc1ccc(Br)o1)=N/O)/C(Cc1ccc(Br)o1)=N/O", "ASSIGNED CATEGORY": "active"}
{"SMILES STRUCTURE": "O=C(NCCSSCCNC(=O)/C(Cc1ccc(O)c(Br)c1)=N/O)/C(Cc1ccc(O)c(Br)c1)=N/O", "ASSIGNED CATEGORY": "inactive"}
